# assayName: MTT cytotoxicity test on Vero cells
# Type: cell-based, African green monkey
# testConditions: African green monkey, Vero cells (kidney epithelial cells), Vero cells, 10–500 µg/mL, MTT, read-out: IC50 (Vero cell viability)
assayEndpoint: IC50 at 48 h (µg/mL)
Give just the numeric value; µg/mL need not be written.

Qu. Look up and state reported IC50 at 48 h for `COc1ccc(C(=O)/C=C/c2ccccc2Cl)c(OC)c1`
Ans. 183

====

# targetEntity: MAO-A (Homo sapiens, UniProt P21397)
# Construct: purchased Sigma-Aldrich
# Sequence (P21397 whole entry): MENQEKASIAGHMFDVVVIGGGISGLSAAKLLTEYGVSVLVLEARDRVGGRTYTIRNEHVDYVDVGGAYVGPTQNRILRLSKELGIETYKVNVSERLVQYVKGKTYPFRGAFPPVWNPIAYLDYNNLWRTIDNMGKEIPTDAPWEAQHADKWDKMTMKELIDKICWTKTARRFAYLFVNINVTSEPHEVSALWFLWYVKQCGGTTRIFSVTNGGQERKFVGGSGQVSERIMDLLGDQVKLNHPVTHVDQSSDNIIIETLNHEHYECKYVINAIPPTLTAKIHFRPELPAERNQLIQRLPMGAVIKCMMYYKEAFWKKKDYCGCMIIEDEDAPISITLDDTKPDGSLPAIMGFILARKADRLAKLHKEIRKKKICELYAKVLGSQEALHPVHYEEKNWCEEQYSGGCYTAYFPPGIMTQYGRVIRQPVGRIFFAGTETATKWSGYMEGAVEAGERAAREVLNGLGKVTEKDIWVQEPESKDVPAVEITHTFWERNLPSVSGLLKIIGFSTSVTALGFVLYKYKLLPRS
# assayName: MAO-A inhibition assay (recombinant enzyme, kynuramine substrate)
# Format: biochemical
# testConditions: 10 µM compound; recombinant MAO-A, kynuramine 0.06 mM; read-out: Residual Activity at 10 µM (%) MAO-A
// returns False unless remaining activity at 10 µM is strictly below 60%, in which case True

Qu. hey, is remaining activity at 10 µM for `COc1ccc(C(=O)/C=C/c2ccccc2)cc1OC` lower than 60% or not?
Ans. False

Qu. Record `COc1ccc(C(=O)/C=C/c2ccc(F)cc2)cc1OC` : is its remaining activity at 10 µM strictly below 60%?
Ans. False

Qu. Would you kindly verify if remaining activity at 10 µM of `COc1ccc(C(=O)/C=C/c2ccc(Cl)cc2)cc1OC` is strictly less than 60%?
Ans. False

Qu. Check if remaining activity at 10 µM falls below 60% for `COc1ccc(C(=O)/C=C/c2ccccc2Br)c(OC)c1` .
Ans. True

Qu. is_below(remaining activity at 10 µM, 60%) for `COc1ccc(C(=O)/C=C/c2cccc(F)c2)c(OC)c1` ?
Ans. True

Qu. Is the reported remaining activity at 10 µM for `COc1ccc(C(=O)/C=C/c2ccccc2Cl)cc1OC` strictly below 60%?
Ans. False
